# test protocol: protease stability score; higher = more stable; yeast display proteolysis, trypsin and chymotrypsin;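 further: relative to predicted unfolded state with 0 unfolded-like and 1 meaning tenfold more protease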
assay endpoint: protease stability score
Numbers only.

INSERT INTO assay_data (primary_sequence, number) VALUES
  ('DEREEDAREAEEIILEDLRTGDWERISRNFDPNVRMHVGDKKYHGREDAIREIKRLMSDMGIKHHSITDSRLQGEWLFLHVEVHFNGRTHDVEIIMIKVNGKWVFKEVRIG', 1.99),
  ('TEDEEISEKAFRYLVESLETGDEETDRHLADPHVRIVFEGRSYHGREQFHEIMSHIRVHHVEIRDVRVQGNKVDWDTQSKVEFNGRKYWVQTRIIVLKVDGRWILHSYILK', 0.708),
  ('HEEEEFSRRLAEMLFEFWLTGDEDALERLIDPNARVEMSINGRDFHTHGRDHIIEWVRKIKNLVFRIRRVEIQGEKIILDGEFDVNGVRTRWKLNLVFIDGVVHRLNIIHV', 1.72),
  ('SEDDEHLREFIEIRLHAIETGDWRRMEHLFDPNVRFEFNGVELHGMETVARRLSRIDHEWSEIRINRHRLFNGVLHLDTRLDLRVHVDGKEIRVEHTTRIVILKFNGRWLITEMTIE', 0.748),
  ('DELHEFLERVAERLVRMEHTGNEEELKKLMDPHVRLVVGDKTSVGREELLRFLEELKRKIGWTNFTVHVRRIEVQGDFFNVDMELHVNGRSLHVLIRVQIINGKLESIHWIWI', 2.03),
  ('QEDRERAERIINELMENELTGDEDRLRELADPRVRVEYDGQEHIGMELRSTWIKEMRFDHIHVDIDEFEFQGNKIHIKARFHIDVNINGRKRRYTVETFLVMKKINGVWFIKDIVFH', 1.36);

Could I get protease stability score for every one of these entries?
1. DEDERLMQKAMEELWDIWHTGDEDRYNELADPHDRFEVGDKEIHGREETSHFLTEFRKRVKGIRILTDRFDHRRIGDKVVLRLETRIEIDGVRIKTRLIFIIRKFNGKWHIHSIIVIIE
2. DEHEHMTELAHRIIMKTWETGDEEEQHRMFDPHARLIIDGKNIHGREQIQREMKRFSEEIRLRDATIHRVEIQGNKVISDWRLRIDVDGREVHFESHVIIRKVNGRWRIDHLILN
3. SEEEKHLEHMARMMVEALMTGDEKLLNHLLDPNVRVEHSINGVEITDHGWHLYVKWVRDLGIDHIYFKDMHHQGNKTHLNIEIEINGKHIETRLLLVIVNGRIHIIKHEIK

1: 0.673; 2: 1.21; 3: 2.08

Could I get protease stability score for every one of these entries?
1. DERTEEVKRITEEFREAERTGDWERLLELIDPDVRIEIIINGRRETYHGREDAKRVLEEWYKQFKNITLKLREMRIQGDKTDLEVEVNVNGRRHDIRVHLHIVNGRIKEIRIEVI
2. REEEEISKNIAELFEHTLRTGDEKLFLKLADPHVKNEQGEFDSVGREEWHRQFREILNKWGVDRIHSQERRFTDYDGRLEMHVEMRFNGKRVEVRMRVEKYDGRWILTELHIRIE

1. 1.63
2. 0.655

====

For each of the sequences below, state its protease stability score.
# test protocol: protease stability score; higher = more stable; yeast display proteolysis, trypsin and chymotrypsin;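 further: relative to predicted unfolded state with 0 unfolded-like and 1 meaning tenfold more protease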
Answers are plain numbers.

Could I get protease stability score for every one of these entries?
1. NEEEEDMEHATKEHMELWRTGDEKRITELADPNVRVHVGEKEYHGREKLSEHIMRLGFDHVELTHFDVQGEKVISHIRVRFNGRDIEFLLIVLKVDGRWYEEQVNIRVS
2. SEDKHMLELALKLLKDSWKTGDEHLSERLMDPHVRLEQGDKEFHGREASQLWFRQIDHVEDMHVHRIRMINGKAYMDVHVVGNVNGKHVEFHQHIVFHKVNGRWIVESVVDS
3. DDRESIAEAVIRHMVEDFRTGNEDNMKRLFDPNTQLRYGDKTHHGWEDVVELLYHDIKHFGIKHVSVDRISVIGEKIHIDMRVEVGDKELTLHFTVDKINGKWKFESVERR
4. SEREEYSHRAVELLIHLLRTGDEDMISKLADPNTYLDWNGREEVGMEDWLRLLREMRIHDVIIHTIEIQGDKIHMDVIIDGEFDGRRTEMRVHLILLKVNGRWVLTEVKIH
5. SEDKEMADWAIEIWVKSIRTGDEHTQLHLVDPHYREDVGDKEIHGRDELRRHMHEARVDEFRHKIDRMRTQGNKVHLDGIFQMKIRIDGKVDHIEFHSRLVVEKVDGRWLVKSLHIN
6. DEERQESEEALRHSMELWATGDFESLSRNVDPNVRVEIGDKTFHGWEIAHELFHKIKNLTVHLEDHEIQGEKVTIHGVLNFNGKREHVRLYSKKVNGRWILEKVQVG

[0.66, 1.26, 0.849, 1.03, 1.21, 2.17]

Data provenance is the NTF2 design screens of Basanta et al. (2020).
